target: T1, human ERBB3 His tagged, monomeric (human, UniProt P21860 20-643, biotinylated in the Alphascreen assays (sites not given)); assay: SPR (Biacore), captured IgG, monomeric ERBB3-His analyte
T1 construct: Used unbiotinylated as Biacore analyte and biotinylated in Alphascreen; treated as one molecule; also called human ERBB3-His (Acrobiosystems); biotinylated monomeric human ERBB3
Property: kon; scope: individual binders
quantity.kind: kon

binder: 15G11 IgG1null (antibody, V domains shown, Human IgG1null (L234A, L235A, G237A) and human Ckappa) VH: QVQLVESGGGLVKPGGSLRLSCAASGFTFSDYGMSWIRQAPGKGLEWVSTISDSGSYTYYPDSVKGRFTISRDNAKNSLYLQMNSLRAEDTAVYYCARELGDYDGFDYWGQGTLVTVSS VL: DIQMTQSPSSLSASVGDRVTITCRASQEISSYLSWYQQKPGKAPKLLIYAASSLDSGVPSRFSGSGSGTDFTLTISSLQPEDFATYYCLQYDSTPYTFGGGTKVEIK
endpoint.result: 1.6e+07 M⁻¹ s⁻¹
//
binder: MH2 IgG1null (antibody, V domains shown, Designer (Maximally Humanized) clone; Human IgG1null and human Ckappa) VH: QVQLVESGGGLVKPGGSLRLSCAASGFTFSDYGMSWIRQAPGKGLEWVSTISDSGSYIYYADSVKGRFTISRDNAKNSLYLQMNSLRAEDTAVYYCAREWGDYDGFDFWGQGTLVTVSS VL: DIQMTQSPSSLSASVGDRVTITCRASQSISSYLSWYQQKPGKAPKLLIYAASSLQSGVPSRFSGSGSGTDFTLTISSLQPEDFATYYCLQYDSTPLTFGGGTKVEIK
endpoint.result: 1.1e+07 M⁻¹ s⁻¹
